STUDY SYSTEM: CDK1/CycB (Homo sapiens)
Construct: GST
Sequence (P06493 whole entry): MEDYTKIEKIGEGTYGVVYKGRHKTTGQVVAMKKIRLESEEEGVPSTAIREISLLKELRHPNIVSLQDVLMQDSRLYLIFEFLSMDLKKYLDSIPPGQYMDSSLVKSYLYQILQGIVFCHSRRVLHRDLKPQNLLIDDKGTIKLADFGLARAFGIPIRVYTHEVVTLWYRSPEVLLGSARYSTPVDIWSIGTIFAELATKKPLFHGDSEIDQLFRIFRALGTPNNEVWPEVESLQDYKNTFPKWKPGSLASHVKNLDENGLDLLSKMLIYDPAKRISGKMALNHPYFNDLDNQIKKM
Sequence (P14635 whole entry partner): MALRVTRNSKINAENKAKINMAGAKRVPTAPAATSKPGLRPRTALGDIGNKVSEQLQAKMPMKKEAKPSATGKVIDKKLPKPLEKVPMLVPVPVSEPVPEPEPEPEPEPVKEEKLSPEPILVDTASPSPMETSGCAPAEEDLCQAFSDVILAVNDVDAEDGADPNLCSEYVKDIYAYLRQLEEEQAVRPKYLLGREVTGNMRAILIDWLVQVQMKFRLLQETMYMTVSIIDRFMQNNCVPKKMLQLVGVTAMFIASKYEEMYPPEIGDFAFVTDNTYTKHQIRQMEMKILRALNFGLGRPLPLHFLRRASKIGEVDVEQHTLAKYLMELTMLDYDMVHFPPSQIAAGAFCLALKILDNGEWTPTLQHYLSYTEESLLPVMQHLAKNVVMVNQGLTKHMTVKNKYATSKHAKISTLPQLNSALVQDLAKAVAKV
PROTOCOL DESCRIPTION: CDK1/CycB kinase assay
PROTOCOL CONDITIONS: 0.5 μM ATP, histone IIIS, 22° C., 10 min
Source text: Recombinant CDK1- and CycB-GST fusion proteins, purified from baculovirus-infected insect cells (Sf9), were purchased from ProQinase GmbH, Freiburg. The histone IIIS used as kinase substrate can be purchased from Sigma. […]
pIC50: −log10 of the molar value.
Given measured pIC50, output True if it is greater than or equal to 7 and False if not.

COMPOUND: CCS(=O)(=O)N=S(C)c1ccc(Nc2ncc(Br)c(N[C@H](C)C(C)(C)O)n2)cc1 (mixture of isomers) [Example 20]
STUDY SYSTEM: CDK1/CycB (Homo sapiens)
LABEL CLASS: True

COMPOUND: C[C@@H](Nc1nc(Nc2ccc(S(C)=NS(=O)(=O)C(C)(C)C)cc2)ncc1Br)C(C)(C)O (mixture of isomers) [Example 22]
STUDY SYSTEM: CDK1/CycB (Homo sapiens)
LABEL CLASS: True

COMPOUND: C[C@@H](Nc1nc(Nc2ccc(S(C)=NS(=O)(=O)c3ccc(OC(F)(F)F)cc3)cc2)ncc1Br)C(C)(C)O (mixture of isomers) [Example 16]
STUDY SYSTEM: CDK1/CycB (Homo sapiens)
LABEL CLASS: False

COMPOUND: Cc1ccc(S(=O)(=O)N=S(C)c2ccc(Nc3nccc(NC(C)C)n3)cc2)cc1 (racemic) [Example 5]
STUDY SYSTEM: CDK1/CycB (Homo sapiens)
LABEL CLASS: False

COMPOUND: Cc1ccc(S(=O)(=O)N=S(C)c2ccc(Nc3ncc(Br)c(NC(C)C)n3)cc2)cc1 (racemic) [Example 1]
STUDY SYSTEM: CDK1/CycB (Homo sapiens)
LABEL CLASS: False

COMPOUND: Cc1ccc(S(=O)(=O)N=S(C)c2ccc(Nc3ncc(Br)c(Nc4ccccc4)n3)cc2)cc1 (racemic) [Example 6]
STUDY SYSTEM: CDK1/CycB (Homo sapiens)
LABEL CLASS: False

COMPOUND: Cc1ccc(S(=O)(=O)N=S(C)c2ccc(Nc3ncc(Br)c(NCCO)n3)cc2)cc1 (racemic) [Example 7]
STUDY SYSTEM: CDK1/CycB (Homo sapiens)
LABEL CLASS: False

COMPOUND: Cc1ccc(S(=O)(=O)N=S(C)c2ccc(Nc3ncc(Br)c(NC4CC4)n3)cc2)cc1 (racemic) [Example 3]
STUDY SYSTEM: CDK1/CycB (Homo sapiens)
LABEL CLASS: False

COMPOUND: Cc1ccc(S(=O)(=O)N=S(C)c2cccc(Nc3ncc(Br)c(NC4CC4)n3)c2)cc1 (racemic) [Example 4]
STUDY SYSTEM: CDK1/CycB (Homo sapiens)
LABEL CLASS: False

COMPOUND: Cc1ccc(S(=O)(=O)N=S(C)c2cccc(Nc3ncc(Br)c(NC(C)C)n3)c2)cc1 (racemic) [Example 2]
STUDY SYSTEM: CDK1/CycB (Homo sapiens)
LABEL CLASS: False

Where these numbers come from: patent US7943629B2
